Hi there, I'd appreciate the recorded IC50 for every entry that follows.
biological target: HCV genotype 1b NS3-4A protease WT (Hepatitis C virus genotype 1b); construct: covalently joined to the NS3 protease domain (aa 1-182) via an amino acid linker GSGS; 6x histidine tag (N); TEV protease cleavage site (N); NS4A central peptide (NS4A aa 21-32), fused N-terminally of NS3; made in house; host or cells: E. coli BL21 (λDE3); assay: FRET enzyme inhibition assay, NS3 WT (SensoLyte 520 HCV protease assay Kit); type: biochemical, hepatitis C virus (HCV) genotype 1b
Sequence (Q9WMX2 1027-1208 limits assumed): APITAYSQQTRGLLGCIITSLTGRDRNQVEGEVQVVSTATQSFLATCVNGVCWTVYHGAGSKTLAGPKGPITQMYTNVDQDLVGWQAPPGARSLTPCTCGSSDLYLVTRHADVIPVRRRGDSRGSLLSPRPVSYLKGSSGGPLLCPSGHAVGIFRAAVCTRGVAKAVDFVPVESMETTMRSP
Numbers only here, please. The scale is nM.

Exam item: # query: IC50 of entry CCC[C@H](NC(=O)[C@@H]1[C@H]2CCC[C@H]2CN1C(=O)[C@@H](NC(=O)[C@@H](NC(=O)c1cnccn1)C1CCCCC1)C(C)(C)C)C(=O)C(=O)NC1CC1 [Telaprevir]
Marked response: 130

Exam item: # query: IC50 of entry COc1ccc2c(O[C@@H]3C[C@H]4C(=O)N[C@]5(C(=O)NS(=O)(=O)C6CC6)C[C@H]5/C=C\CCCCN(C)C(=O)[C@@H]4C3)cc(-c3nc(C(C)C)cs3)nc2c1C [Simeprevir]
Marked response: 17
